protocol text: soluble on expression in E. coli; label from the status in PepcDB or PDB records
result type: soluble on expression in E. coli

# annotated cases, reported soluble on expression in E. coli shown
* MTMPDYDLIAILGPTASGKTPFAAALAAELNTEIISADSRQIYRGMDLGTGKDLEDYTINGRQIPYHLIDIADPGYKYNVFEYQRDFLTAYETIKQKGCLPVLCGGTGLYLESVLKGYRLIPVPENQELRVRLAEKSLEELTAILSSYKTLHNSTDVDTVKRAIRAIEIEEYYAKTPIEEREFPQLNSLIIGVDIDRELRREKITRRLKQRLDDGMVEEVRRLLAEGIQPDDLIYYGLEYKYLTLYAIGKMTYDEMFTGLETAIHQFAKRQMTWFRGMERRGFTIHWVDASLPMEEKINFVKQKLKEFLEHHHHHH | not soluble
* MVPKTATSTETKTITRIIHYVDKVTNQNVKEDVVQPVTLSRTKTENKVTGVVTYGEWTTGNWDEVISGKIDKYKDPDIPTVESQEVTSDSSDKEITVRYDRLSTPEKPIPQPNPEHPSVPTPNPELPNQETPTPDKPTPEPGTPKTETPVNPDPEVPTYETGKREELPNTGTEANATLASAGIMTLLAGLGLGFFKKKEDEKLEHHHHHH | soluble
* MRLPTEAHLRQHVRVIDSMSCNREKVRDLRRQIPSFDCVPGCHDCCGPVTTSSEEMSRLPRKTVAEQEAAFNELNCVHLGPQGCTVYDERPLICRLFGTTASLPCPNGRRPVELIHPRAEKQIHEYMASTRQVLVLEHHHHHH | not soluble
* MPGQPFGVYLHVPFCLTRCGYCDFNTYTPAQLGGVSPDRWLLALRAELELAAAKLDAPTVHTVYVGGGTPSLLGGERLATLLDMVRDHFVLAPDAEVSTEANPESTWPEFFATIRAAGYTRVSLGMQSVAPRVLATLDRVHSPGRAAAAATEAIAEGFTHVNLDLIYGTPGESDDDLVRSVDAAVQAGVDHVSAYALVVEHGTALARRVRRGELAAPDDDVLAHRYELVDARLSAAGFAWYEVSNWCRPGGECRHNLGYWDGGQWWGAGPGAHGYIGVTRWWNVKHPNTYAEILAGATLPVAGFEQLGADALHTEDVLLKVRLRQGLPLARLGAAERERAEAVLADGLLDYHGDRLVLTGRGRLLADAVVRTLLG | not soluble

Ask: I'd like to know its soluble on expression in E. coli. The sequence in question is `SGGGGGILEKLGDICFSLRYVPTAGKLTVVILEAKNLKKMDVGGLSDPYVKIHLMQNGKRLKKKKTTIKKNTLNPYYNESFSFEVPFEQIQKVQVVVTVLDYDKIGKNDAIGKVFVGYNSTGAELRHWSDMLANPRRPIAQWHTLQVEEEVDAMLAVKK`
Reply: soluble
